Target: Toxoplasma gondii RH tachyzoites
Assay: EC50 growth inhibition (48 h luciferase)
Cut-off 800 nM on EC50 growth inhibition: below means TRUE, at or above means FALSE.

{"compound": "CC(Oc1ccc(NC(=O)c2cccs2)cc1)C(=O)c1ccc(Cl)cc1 (stereo not given)", "classLabel": "TRUE"}
{"compound": "COc1ccc(C(O)(CCC(C)C)C(CN2CCOCC2)c2ccc(Cl)cc2)cc1 (stereo not given)", "classLabel": "FALSE"}
{"compound": "Nc1ccc(-c2nc3cc(Oc4ccc(Oc5ccc6[nH]c(-c7ccc(N)cc7)nc6c5)cc4)ccc3[nH]2)cc1", "classLabel": "FALSE"}
{"compound": "COc1ccc(C(=O)C(CCC(CNC(C)(C)C)C(=O)c2ccc(OC)cc2)CNC(C)(C)C)cc1 (stereo not given)", "classLabel": "FALSE"}
{"compound": "COc1ccc(/C=C2/SC(Nc3ccc(F)cc3)=NC2=O)c(OC)c1", "classLabel": "TRUE"}
{"compound": "COc1ccc(C(=O)NC(c2ccccc2Cl)c2cc(Cl)c3cccnc3c2O)cc1 (stereo not given)", "classLabel": "TRUE"}
{"compound": "CCCCC(O)(c1ccc(Cl)cc1)C(CN1CCOCC1)c1ccc(Cl)cc1 (stereo not given)", "classLabel": "FALSE"}
{"compound": "CCc1ccc(Nc2cc(C)c3ccc(O)cc3n2)cc1", "classLabel": "FALSE"}
{"compound": "CSc1ccccc1C(=O)Nc1nc(-c2ccccn2)cs1", "classLabel": "FALSE"}
{"compound": "CCN(CC)CCCNc1nc(-c2ccc(Cl)cc2)nc2ccccc12", "classLabel": "TRUE"}

====

This section presents molecules with their documented % growth inhibition values.
Tested on: Toxoplasma gondii RH tachyzoites
Experiment: % growth inhibition vs DMSO (48 h luciferase); higher = more inhibition
Details: 10 µM

{"molecule": "FC(F)(F)c1ccc(Nc2nnnc3ccccc23)cc1", "limitQualifier": "=", "% growth inhibition (%)": 83.5}
{"molecule": "COc1cccc(NC(=O)[C@H](C(C)C)n2c(=O)[nH]c3ccccc3c2=O)c1", "limitQualifier": "=", "% growth inhibition (%)": 76.9}
{"molecule": "CCN(Cc1ccccc1)C1CCN(Cc2cc(Br)ccc2O)CC1", "limitQualifier": "<", "% growth inhibition (%)": 0}
{"molecule": "CCCCc1c(CCC)c(=N)c2ccccc2n1C", "limitQualifier": "<", "% growth inhibition (%)": 0}
{"molecule": "CCn1c(SCC(=O)Nc2cc(C(F)(F)F)ccc2Cl)nc2ccccc2c1=O", "limitQualifier": "<", "% growth inhibition (%)": 0}
{"molecule": "O=C(Nc1ccc(CN2CCOCC2)cc1)c1ccc(-c2cc(Cl)ccc2Cl)o1", "limitQualifier": "=", "% growth inhibition (%)": 81.1}
{"molecule": "Cc1sc(NC(=O)c2ccco2)c(C(c2cccnc2)N2CCC(Cc3ccccc3)CC2)c1C (configuration not stated)", "limitQualifier": "=", "% growth inhibition (%)": 99.8}
{"molecule": "Cc1sc(NC(=O)c2ccccc2)c(C(c2cccs2)N2CCN(c3ccccc3)CC2)c1C (configuration not stated)", "limitQualifier": "=", "% growth inhibition (%)": 88.7}
{"molecule": "Cc1cc(N2CCN(C3CCCC3)CC2)n2c(nc3ccccc32)c1C#N", "limitQualifier": "<", "% growth inhibition (%)": 0}
{"molecule": "COc1ccc(-c2nc(NC(=O)CS(=O)(=O)c3ccc(F)cc3)sc2C)cc1", "limitQualifier": "=", "% growth inhibition (%)": 69.4}
{"molecule": "CCOc1ccccc1NC(=O)CN1CCN(C(=O)c2ccco2)CC1", "limitQualifier": "<", "% growth inhibition (%)": 0}
{"molecule": "COc1ccc(C2=C(c3ccc(OC)cc3)C3(c4ccccc4)C(=O)C2(c2ccccc2)C2C(=O)N(c4ccc(C)cc4)C(=O)C23)cc1 (configuration not stated)", "limitQualifier": "=", "% growth inhibition (%)": 41.5}
{"molecule": "Cc1ccc2nc(C)cc(Nc3cccc(C(F)(F)F)c3)c2c1", "limitQualifier": "=", "% growth inhibition (%)": 99.3}
{"molecule": "O=C(CCc1ccccc1)c1ccccc1OCC(O)CN1CCCCC1 (configuration not stated)", "limitQualifier": "=", "% growth inhibition (%)": 66.1}
{"molecule": "COCCNCC(O)Cn1c2ccc(Cl)cc2c2cc(Cl)ccc21 (configuration not stated)", "limitQualifier": "=", "% growth inhibition (%)": 100}
{"molecule": "COc1ccc(C(O)(CCC(C)C)C(CN2CCOCC2)c2ccc(Cl)cc2)cc1 (configuration not stated)", "limitQualifier": "=", "% growth inhibition (%)": 101}
{"molecule": "COc1cc2cc(C(=O)Nc3ccccc3)c(N)nc2cc1OC", "limitQualifier": "=", "% growth inhibition (%)": 78.1}
{"molecule": "COc1ccc(N2CCN(C(CNC(=O)C3CCCCC3)c3ccc4c(c3)OCO4)CC2)cc1 (configuration not stated)", "limitQualifier": "<", "% growth inhibition (%)": 0}
{"molecule": "CCCOCc1cc(CN2CCN(c3cccc(Cl)c3)CC2)c(O)c2ncccc12", "limitQualifier": "=", "% growth inhibition (%)": 99.6}
{"molecule": "CNCCCNc1ccnc2cc(Cl)ccc12", "limitQualifier": "=", "% growth inhibition (%)": 21.4}
{"molecule": "CCOc1ccc(-n2cc(-c3ccccc3)c3c(SCc4cc(C)ccc4C)ncnc32)cc1", "limitQualifier": "=", "% growth inhibition (%)": 86.5}
{"molecule": "CCOC(=O)c1cnc2ccc(Cl)cc2c1NCCCN(C)C", "limitQualifier": "=", "% growth inhibition (%)": 82.2}
